The following variants are shown together with reported self-cleavage values.
B1: HDV Ribozyme (parent)
chain: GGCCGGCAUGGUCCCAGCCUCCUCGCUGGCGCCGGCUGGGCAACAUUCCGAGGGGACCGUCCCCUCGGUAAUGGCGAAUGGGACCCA

# Variants of: B1
# Assay: self-cleavage, relative activity (ratio to wild type); higher = more cleavage; co-transcriptional
Reply briefly: the number, and no unit.

Would you please look over these solved cases?
mutation_annotation="C41U U79A" observed_property=self-cleavage number=0.98
mutation_annotation="G31A G80U" observed_property=self-cleavage number=0.104
mutation_annotation="C21G C85U" observed_property=self-cleavage number=0
mutation_annotation="U37C A45U" observed_property=self-cleavage number=0.639
mutation_annotation="C22U G40A" observed_property=self-cleavage number=0.643
mutation_annotation="C18A G82A" observed_property=self-cleavage number=0.149
mutation_annotation="U37A C86U" observed_property=self-cleavage number=0.35
mutation_annotation="U65A G81U" observed_property=self-cleavage number=0.353

Lookup: For the variant U27A A51G , give its reported self-cleavage.
Found: 0.997

Lookup: For the variant G73U A87G , give its reported self-cleavage.
Found: 0.452

Lookup: For the variant G17U C86U , give its reported self-cleavage.
Found: 0.612
